Assay: Lung homogenate stability in vitro (dog)
Type: in vitro ADME, Beagle dog
Settings: 8 h, 37° C.
Recorded Residual rate after incubation of dog lung homogenate (%), one value per entry.
Respond with the bare value in %.

Worked cases, answers included:
{"Molecule": "CC(Cc1ccc(OCCC[N+]23CCC(CC2)[C@@H](OC[C@@](O)(c2ccccc2)C2CCCC2)C3)cc1)NC[C@H](O)c1ccc(O)c2[nH]c(=O)ccc12.[Br-] (stereo partly drawn)", "Unit of measurement": "%", "Data value": 92}
{"Molecule": "CC(Cc1ccc(OCC[N+]23CCC(CC2)[C@@H](OC[C@@](O)(c2ccccc2)C2CCCC2)C3)cc1)NC[C@H](O)c1ccc(O)c(NC=O)c1 (stereo partly drawn)", "Unit of measurement": "%", "Data value": 89}

Now consider the entry below.
Data request: Bench note: what Residual rate after incubation of dog lung homogenate (%) did O=c1ccc2c([C@@H](O)CNCCCCCCCCC[N+]34CCC(CC3)[C@@H](OC[C@@](O)(c3ccccc3)C3CCCC3)C4)ccc(O)c2[nH]1.[Br-] show?
Data returned: 91
